target: elastase from human neutrophil (Homo sapiens, UniProt P08246); construct: using elastase from human neutrophil; from tissue; host or cells: human neutrophil; assay: Inhibitory effect on elastase (spectrophotometric method, substrate Suc-Ala-Pro-Ala-pNA); assay type: biochemical; details: Y represents an oxygen atom; pH 8.0, 37° C., 30 minutes; read-out: Inhibitory Effect on Elastase, IC50
Sequence (P08246 30-247 limits assumed): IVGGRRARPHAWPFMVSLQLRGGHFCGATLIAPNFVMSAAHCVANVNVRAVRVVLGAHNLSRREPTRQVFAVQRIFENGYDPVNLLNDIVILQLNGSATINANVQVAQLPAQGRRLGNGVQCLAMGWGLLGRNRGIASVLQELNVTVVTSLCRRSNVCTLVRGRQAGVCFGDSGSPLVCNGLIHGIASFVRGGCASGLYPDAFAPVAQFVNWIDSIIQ
Reported IC50 values for the following molecules.
Enter your answer as a number in µM; do not include the unit.

These solved cases illustrate the format of a correct answer.
>>> readout_number("CN(C)S(=O)(=O)c1ccc(NC(=O)c2cc(Cl)cc(OC(=O)c3ccc(NC(=N)N)cc3)c2)cc1")
0.95
>>> readout_number("N=C(N)Nc1ccc(C(=O)Oc2ccccc2Cl)cc1")
27
>>> readout_number("N=C(N)Nc1ccc(C(=O)Oc2cccc(Cl)c2)cc1")
8

Enter measured IC50, system elastase from human neutrophil (Homo sapiens, UniProt P08246), for the molecule shown: COc1cc(OC(=O)c2ccc(NC(=N)N)cc2)cc(C(=O)N2CCS(=O)(=O)C2)c1
12

Enter measured IC50, system elastase from human neutrophil (Homo sapiens, UniProt P08246), for the molecule shown: CCC(=O)c1ccc(Cl)cc1OC(=O)c1ccc(NC(=N)N)cc1
1.6

Enter measured IC50, system elastase from human neutrophil (Homo sapiens, UniProt P08246), for the molecule shown: CCC(=O)Oc1cc(Cl)cc(OC(=O)c2ccc(NC(=N)N)cc2)c1
0.38

----------
molecular target: elastase from human neutrophil (Homo sapiens); construct: using elastase from human neutrophil; from tissue; host or cells: human neutrophil; test: Inhibitory effect on elastase (spectrophotometric method, substrate Suc-Ala-Pro-Ala-pNA); assay type: biochemical; details: Y represents a sulfur atom; pH 8.0, 37° C., 30 minutes; read-out: Elastase Inhibitory Effect, IC50
Reported IC50 values for the following compounds.
Enter your answer as a number in µM; do not include the unit.

These solved cases illustrate the format of a correct answer.
>>> readout_number("COc1cccc(SC(=O)c2ccc(NC(=N)N)cc2)c1 [Example 129]")
6.4
>>> readout_number("COC(=O)c1ccccc1SC(=O)c1ccc(NC(=N)N)cc1 [Example 141]")
2.6
>>> readout_number("Cc1cccc(SC(=O)c2ccc(NC(=N)N)cc2)c1 [Example 126]")
5
>>> readout_number("N=C(N)Nc1ccc(C(=O)Sc2ccccc2)cc1 [Example 124]")
2.1
>>> readout_number("N=C(N)Nc1ccc(C(=O)Sc2ccccc2Br)cc1 [Example 138]")
1.6

Please report the measured IC50 for N=C(N)Nc1ccc(C(=O)Sc2c(Cl)cccc2Cl)cc1 [Example 136]
45

Please report the measured IC50 for CCN(CC)S(=O)(=O)c1ccc(SC(=O)c2ccc(NC(=N)N)cc2)cc1 [Example 146]
11

Please report the measured IC50 for N=C(N)Nc1ccc(C(=O)Sc2ccc([N+](=O)[O-])cc2)cc1 [Example 145]
18

Please report the measured IC50 for Cc1ccccc1SC(=O)c1ccc(NC(=N)N)cc1 [Example 125]
20

Please report the measured IC50 for N=C(N)Nc1ccc(C(=O)Sc2ccccc2Cl)cc1 [Example 132]
1.8

Please report the measured IC50 for N=C(N)Nc1ccc(C(=O)Sc2cccc(Cl)c2)cc1 [Example 133]
0.3

Please report the measured IC50 for COc1ccccc1SC(=O)c1ccc(NC(=N)N)cc1 [Example 128]
21

Please report the measured IC50 for N=C(N)Nc1ccc(C(=O)Sc2ccc(F)cc2)cc1 [Example 131]
21

These measurements were taken from patent US5247084A.
